# assay-target: β-secretase(BACE) (Homo sapiens)
# Construct: purchased Panvera
# Sequence (P56817 46-501): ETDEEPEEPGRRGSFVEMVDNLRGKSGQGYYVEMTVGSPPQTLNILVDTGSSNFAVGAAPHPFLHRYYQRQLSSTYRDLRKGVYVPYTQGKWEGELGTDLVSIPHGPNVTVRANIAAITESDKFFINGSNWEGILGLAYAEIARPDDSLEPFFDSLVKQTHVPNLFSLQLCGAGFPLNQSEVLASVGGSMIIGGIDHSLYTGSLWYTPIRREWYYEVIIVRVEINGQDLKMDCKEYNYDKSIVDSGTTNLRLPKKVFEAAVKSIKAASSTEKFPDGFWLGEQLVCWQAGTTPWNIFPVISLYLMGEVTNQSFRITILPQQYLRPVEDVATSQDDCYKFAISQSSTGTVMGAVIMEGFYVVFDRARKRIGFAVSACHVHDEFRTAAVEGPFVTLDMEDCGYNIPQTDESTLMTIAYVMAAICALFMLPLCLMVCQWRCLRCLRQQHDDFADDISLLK
# protocol-notes: BACE FS1% Inhibition Assay
# Assay type: biochemical
# conditions: 1 μM test compound; FS1 substrate
What % Inhibition (FS) 1 μM was measured for each of the following?

stdin: Could you share which % Inhibition (FS) 1 μM value was measured for COc1ccccc1-c1ccc2c(c1)CN(Cc1cccc(C(=O)N(C)C3CCCCC3)c1)C(NC(C)=O)=N2 [Compound 607] ?
stdout: 116%

stdin: Try NC1=Nc2ccc(Oc3ccccc3)cc2CN1Cc1cccc(C(=O)N2CCCC3CCCCC32)c1 (stereo not shown) [Compound 212] next.
stdout: <30%

stdin: Try CN(C(=O)c1cccc(CN2Cc3cc(C=Cc4ccccc4)ccc3N=C2N)c1)C1CCCCC1 [Compound 266] next.
stdout: 34%

stdin: Try CCC(c1cccc(C(=O)N(C)C2CCCCC2)c1)N1Cc2cc(-c3ccccc3OC)ccc2N=C1N (racemic) [Compound 395] next.
stdout: 107%

stdin: Try Cc1cc(C(=O)NCCN2Cc3cc(-c4ccccc4)ccc3N=C2N)c(C)o1 [Compound 586] next.
stdout: <30%

stdin: Try NC1=Nc2ccc(-c3ccccc3-c3ccccc3)cc2CN1CCNC(=O)C1CCCCC1 [Compound 544] next.
stdout: <30%

stdin: Try CC(C)c1ccc(Sc2ccc3c(c2)CN(Cc2cccc(C(=O)N(C)C4CCCCC4)c2)C(N)=N3)cc1 [Compound 407] next.
stdout: <30%

stdin: Try COc1ccccc1Oc1ccc2c(c1)CN(Cc1cccc(C(=O)N(C)C3CCCCC3)c1)C(N)=N2 [Compound 232] next.
stdout: <30%

stdin: Try COc1ccc(Sc2ccc3c(c2)CN(Cc2cccc(C(=O)N(C)C4CCCCC4)c2)C(N)=N3)cc1 [Compound 410] next.
stdout: 39%

stdin: Try CC(C)c1ccccc1Oc1ccc2c(c1)CN(CCC(=O)NC1C3CC4CC(C3)CC1C4)C(N)=N2 (stereo not shown) [Compound 466] next.
stdout: <30%

stdin: Try COc1ccccc1-c1cc2c(cc1F)CN(CCC(=O)NC1C3CC4CC(C3)CC1C4)C(N)=N2 (stereo not shown) [Compound 620] next.
stdout: <30%

stdin: Try NC1=Nc2ccc(-c3ccccc3F)cc2CN1CCNC(=O)C1CCC1 [Compound 642] next.
stdout: 63%

stdin: Try COc1ccccc1-c1ccc2c(c1)CN(CCNC(=O)CCN)C(N)=N2 [Compound 493] next.
stdout: <30%

stdin: Try COc1ccc(-c2nc3ccccc3s2)c(Oc2ccc3c(c2)CN(Cc2cccc(C(=O)N(C)C4CCCCC4)c2)C(N)=N3)c1 [Compound 469] next.
stdout: <30%

stdin: Try Cc1ccc(-c2ccc3c(c2)CN(CCNC(=O)C2CCCCC2)C(N)=N3)cc1 [Compound 628] next.
stdout: <30%

stdin: Try NC1=Nc2ccc(-c3cncnc3)cc2CN1CCNC(=O)C1CCCCC1 [Compound 575] next.
stdout: <30%
